# system under test: 5-HT2C (Homo sapiens)
# Sequence (P28335 33-458, species assumed): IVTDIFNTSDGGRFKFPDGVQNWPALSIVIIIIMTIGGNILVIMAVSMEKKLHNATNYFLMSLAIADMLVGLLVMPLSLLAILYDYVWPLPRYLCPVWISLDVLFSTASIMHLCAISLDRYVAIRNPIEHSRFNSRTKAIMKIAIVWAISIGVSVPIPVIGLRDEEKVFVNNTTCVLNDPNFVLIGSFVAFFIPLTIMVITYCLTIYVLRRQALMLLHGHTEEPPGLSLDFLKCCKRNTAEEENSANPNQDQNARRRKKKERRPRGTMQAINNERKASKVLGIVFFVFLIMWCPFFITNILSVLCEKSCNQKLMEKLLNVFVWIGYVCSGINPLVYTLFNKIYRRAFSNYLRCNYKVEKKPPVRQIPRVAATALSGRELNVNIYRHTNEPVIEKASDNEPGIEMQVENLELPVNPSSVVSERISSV
pKi: −log10 of the molar value.
recorded endpoint: pKi

Measured pKi, CCn1ncc(CN2CCN(c3cccnc3N3CCC(O)CC3)CC2)c1C.Cl [Example 1, hydrochloride] : < 5.08

---

# system under test: 5-HT6 (Homo sapiens)
# Sequence (P50406 whole entry, species assumed): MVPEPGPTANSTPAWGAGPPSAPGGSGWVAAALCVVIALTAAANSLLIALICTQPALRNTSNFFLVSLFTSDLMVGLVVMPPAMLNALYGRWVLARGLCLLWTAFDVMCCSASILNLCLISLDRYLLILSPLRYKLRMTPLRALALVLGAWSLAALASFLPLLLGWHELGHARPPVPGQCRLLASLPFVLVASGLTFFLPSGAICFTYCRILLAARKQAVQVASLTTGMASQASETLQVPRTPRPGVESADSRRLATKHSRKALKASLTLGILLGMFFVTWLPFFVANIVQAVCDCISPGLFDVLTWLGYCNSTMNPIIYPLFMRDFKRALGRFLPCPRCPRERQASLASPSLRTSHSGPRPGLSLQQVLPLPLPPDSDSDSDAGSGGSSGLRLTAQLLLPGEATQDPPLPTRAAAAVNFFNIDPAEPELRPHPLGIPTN
recorded endpoint: Ki

Measured Ki, CCn1ncc(CN2CCN(c3cccnc3N3CCC(O)CC3)CC2)c1C.Cl [Example 1, hydrochloride] : > 5.83 µM

---

recorded endpoint: Ki
Provide the measurement as a number trailed by its unit.

Measured Ki (5-HT1D (Homo sapiens)), entry CCn1ncc(CN2CCN(c3cccnc3N3CCC(O)CC3)CC2)c1C.Cl [Example 1, hydrochloride] : 1.84 µM
